Experiment: TLR3 IRF3 reporter activation blockers – cell-based, poly I:C stimulus, luciferase, 10K MLSCN set, primary screen (AID 602277)
Details: HEK293-TLR3 RL24 IRF3 luciferase reporter, at 10 µM, active compounds read high
Measured Property: inhibition (%)
# output: bare number, implied unit %

Recorded inhibition, per entry:
# inhibition of "Cc1ccc(Cn2c(=N)c(C(=O)NCc3ccco3)cc3c(=O)n4ccccc4nc32)cc1" = 10.3

Lab note: "COC(=O)Cn1c(=O)c2c(nc(Br)n2CC(=O)OC)n(C)c1=O" gave inhibition of 7.4

The measured inhibition associated with "CCOC(=O)/C(C#N)=C(/C)c1ccc(OC)cc1" reads -13.7

Documented inhibition of CCOCCCNC(=O)C1CCC(CNS(=O)(=O)c2cccc3nsnc23)CC1 (stereo not drawn) : 22.9

Input "CCN(C(=O)c1cc(Cl)ccc1OC)C1CCCCC1" . Output inhibition: 42

Next:
Record summary for "CCN1CCN(S(=O)(=O)Cc2ccccc2)CC1" : reported inhibition = -9.78

The reported value for "CC1CCN(C(=O)CSc2nc3ccccc3[nH]2)CC1" in terms of inhibition is -116
